Measured values drawn from patent US9238619B2 for this set.

Molecular target: human GlyT1c transporter (Homo sapiens (Human))
Experiment: Radioligand binding assays using recombinant CHO cell membranes expressing human GlyT1
Conditions: read-out: radioligand binding Kiapp
pKi: −log10 of the molar value. Counter-ions that a name gives are not always drawn.
recorded_endpoint: pKi

Measured pKi of Cn1cnc(S(=O)(=O)NCCOc2ccc(F)c(C(CN)Cc3ccccc3)c2)c1 (centres unmarked) [Example 1, hydrochloride] : ≥ 6.00

Measured pKi of Cn1cc(S(=O)(=O)NCCOc2cccc(C(CN)Cc3cccc(Cl)c3)c2)cn1 (centres unmarked) [Example 2, hydrochloride] : ≥ 6.00

Measured pKi of CN1CC(Cc2ccccc2)(c2ccc(F)c(OCCNS(=O)(=O)c3cn(C)cn3)c2)C1 [Example 52] : ≥ 7.00

Measured pKi of CN(C)CC(Cc1ccccc1)c1ccc(F)c(OCCNS(=O)(=O)c2cn(C)cn2)c1 (centres unmarked) [Example 32] : ≥ 7.00

Measured pKi of Cn1cnc(S(=O)(=O)NCCOc2cccc(C3(Cc4ccccc4)CN(CCF)C3)c2)c1 [Example 72] : ≥ 7.00

Measured pKi of CN1CCCC(Cc2ccccc2)(c2cccc(OCCNS(=O)(=O)c3cnn(C)c3)c2)C1 (centres unmarked) [Example 63] : ≥ 7.00

Measured pKi of CCCS(=O)(=O)N(C)Cc1cccc(C(CNC(=O)OC(C)(C)C)C2(c3ccc(Cl)cc3)CCC2)c1 (centres unmarked) [Example 40] : ≥ 5.00

Measured pKi of Cn1cnc(S(=O)(=O)NCCOc2cc(C(CN)Cc3ccccc3)ccc2F)c1 (centres unmarked) [Example 4, hydrochloride] : ≥ 7.00

====

Provide the recorded pKi for the entries that follow.
Molecular target: human GlyT1c transporter (Homo sapiens (Human), UniProt P48067)
Sequence (P48067 whole entry): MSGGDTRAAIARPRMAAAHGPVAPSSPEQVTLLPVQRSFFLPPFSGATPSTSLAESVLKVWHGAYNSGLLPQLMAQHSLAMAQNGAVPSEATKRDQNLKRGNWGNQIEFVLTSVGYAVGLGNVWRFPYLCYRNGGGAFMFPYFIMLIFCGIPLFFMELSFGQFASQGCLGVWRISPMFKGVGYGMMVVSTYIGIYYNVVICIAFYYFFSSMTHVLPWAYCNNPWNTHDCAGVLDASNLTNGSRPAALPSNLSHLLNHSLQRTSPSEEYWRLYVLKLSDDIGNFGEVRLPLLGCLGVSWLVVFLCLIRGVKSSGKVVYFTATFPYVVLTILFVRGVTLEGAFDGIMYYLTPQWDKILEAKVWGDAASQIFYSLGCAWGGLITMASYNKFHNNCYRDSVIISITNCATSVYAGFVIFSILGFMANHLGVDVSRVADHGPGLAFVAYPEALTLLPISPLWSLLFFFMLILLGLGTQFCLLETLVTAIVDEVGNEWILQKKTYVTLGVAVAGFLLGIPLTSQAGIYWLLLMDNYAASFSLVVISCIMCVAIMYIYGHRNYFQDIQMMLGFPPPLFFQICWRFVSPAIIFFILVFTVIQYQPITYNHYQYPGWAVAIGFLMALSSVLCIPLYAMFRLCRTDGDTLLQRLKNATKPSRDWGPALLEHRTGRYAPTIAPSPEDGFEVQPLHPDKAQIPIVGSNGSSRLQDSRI
Test: Radioligand binding assays using recombinant CHO cell membranes expressing human GlyT1
Conditions: read-out: radioligand binding Kiapp
pKi: −log10 of the molar value. Where a name gives a salt, the structure may show the parent alone.

Measured pKi of O=S(=O)(CC1CC1)NCCOc1cccc(C2(Cc3ccccc3)CCNC2)c1 (stereo not shown) [Example 59] : ≥ 7.00

Measured pKi of CN1CCCC(Cc2ccccc2)(c2cccc(OCCNS(=O)(=O)c3cn(C)cn3)c2)C1 (stereo not shown) [Example 62] : ≥ 7.00

Measured pKi of Cn1cc(S(=O)(=O)NCCOc2cccc(C(CN)Cc3cccc(C(F)(F)F)c3)c2)cn1 (stereo not shown) [Example 10, hydrochloride] : ≥ 7.00

Measured pKi of Cn1cc(S(=O)(=O)NCc2cccc(C3(Cc4ccccc4)CNC(=O)C3)c2)cn1 (stereo not shown) [Example 66] : ≥ 5.00

Measured pKi of Cn1cnc(S(=O)(=O)NCCOc2cccc(C(Cc3ccccc3)CN3CCCC3)c2)c1 (stereo not shown) [Example 35] : ≥ 6.00

Measured pKi of CN(C)CC(Cc1ccccc1)c1cc(OCCNS(=O)(=O)c2cnn(C)c2)ccc1F (stereo not shown) [Example 33] : ≥ 7.00

Measured pKi of CN(C)CC(Cc1cccc(C(F)(F)F)c1)c1cccc(OCCNS(=O)(=O)c2cn(C)cn2)c1 (stereo not shown) [Example 29] : ≥ 7.00

Measured pKi of CN(Cc1cccc(C(CN)C2(c3ccc(Cl)cc3)CCC2)c1)S(=O)(=O)c1cn(C)cn1 (stereo not shown) [Example 44, hydrochloride] : ≥ 5.00

Measured pKi of CC(C)N1CCC(Cc2ccccc2)(c2cccc(OCCNS(=O)(=O)c3cn(C)cn3)c2)C1 (stereo not shown) [Example 77] : ≥ 6.00

Measured pKi of CN(C)CC(Cc1ccccc1)c1cc(OCCNS(=O)(=O)c2cnn(C)c2)ccc1Cl (stereo not shown) [Example 30, hydrochloride] : ≥ 7.00

Measured pKi of CN(Cc1cccc(C(CNC(=O)OC(C)(C)C)C2(c3ccc(Cl)cc3)CCC2)c1)S(=O)(=O)c1cnn(C)c1 (stereo not shown) [Example 39] : ≥ 5.00

Measured pKi of CN(C)CC(Cc1ccccc1)c1cccc(CNS(=O)(=O)c2cnn(C)c2)c1 (stereo not shown) [Example 27] : ≥ 6.00

Measured pKi of Cn1cc(S(=O)(=O)NCc2cccc(C(CN)Cc3ccccc3)c2)cn1 (stereo not shown) [Example 18, hydrochloride] : ≥ 7.00

Measured pKi of NCC(Cc1ccccc1)c1cccc(CNS(=O)(=O)CC2CC2)c1 (stereo not shown) [Example 14] : ≥ 5.00

Measured pKi of CCOC(=O)N1CC(Cc2ccccc2)(c2cccc(OCCNS(=O)(=O)c3cn(C)cn3)c2)C1 [Example 47] : ≥ 6.00

Measured pKi of O=S(=O)(CC1CC1)NCc1cccc(C2(Cc3ccccc3)CCNC2)c1 (stereo not shown) [Example 68] : ≥ 6.00
